These entries and their values trace back to patent US20120258108A1.

Biological target: Recombinant Human DLL4 (human, UniProt Q9NR61 27-524)
Sequence (Q9NR61 27-524 limits assumed): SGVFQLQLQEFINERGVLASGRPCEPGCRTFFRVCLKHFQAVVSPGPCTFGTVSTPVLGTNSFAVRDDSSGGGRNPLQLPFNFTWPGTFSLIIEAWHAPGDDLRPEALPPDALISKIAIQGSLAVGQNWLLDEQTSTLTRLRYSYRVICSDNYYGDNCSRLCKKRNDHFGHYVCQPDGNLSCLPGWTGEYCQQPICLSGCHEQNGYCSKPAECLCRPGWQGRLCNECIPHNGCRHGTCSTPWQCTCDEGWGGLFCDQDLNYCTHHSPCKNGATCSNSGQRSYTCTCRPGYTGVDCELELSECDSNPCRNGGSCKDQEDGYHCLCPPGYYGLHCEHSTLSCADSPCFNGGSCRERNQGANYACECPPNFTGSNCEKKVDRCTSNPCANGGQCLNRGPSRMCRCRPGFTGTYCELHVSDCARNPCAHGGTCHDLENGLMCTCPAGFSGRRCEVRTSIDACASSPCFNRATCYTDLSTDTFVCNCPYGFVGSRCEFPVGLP
Assay: SPR (BIACORE)
Measured koff by item
The reply should be a number in s⁻¹, with the unit left off.

Would you please look over these solved cases?
binder: AB289 (antibody, human IgG1, kappa, V domains shown, CDR-grafted parent antibody) VH: EVQLVQSGTEVKKPGESLKISCKASGFTFSNFPMAWVRQMPGKGLEWVATISSSDGTTYYRDSVKGQFTISRDNSFNTLFLQWSSLKASDTAMYYCARGYYNSPFAYWGQGTMVTVSS VL: EIVMTQSPATLSVSPGERATLSCRASEDIYSNLAWYQQKPGQAPRLLIYDTNNLADDVPARFSGSGSGTEFTLTISSLQSEDFAVYYCQQYNNYPPTFGQGTRLEIKR
unit: s⁻¹
koff: 0.0055

binder: AB319 (antibody, human IgG1, kappa, V domains shown, CDR-grafted parent antibody) VH: EVQLVESGGGLVQPANSLKLSCAASGFTFSNFPMAWVRQSPKKGLEWVATISSSDGTTYYRDSVKGRFTISRDNAKNTLYLQMDSLRSEDTATYYCARGYYNSPFAYWGQGVLVTVSS VL: DIRMTQSPASLSASLGETVNIECRASEDIYSNLAWYQQKPGKAPQLLIYDTNNLADGVPSRFSGSGSGTQFSLKINSLQSEDVATYYCQQYNNYPPTFGGGTKLELKR
unit: s⁻¹
koff: 0.002

For the next question, use this binder.
Recorded result, AB307 (antibody, human IgG1, kappa, V domains shown, CDR-grafted parent antibody) VH: EVQLLESGGGLVQPGGSLRLSCAVSGGSISSSSYYWGWIRQAPGKGLEWIGDIYYTGSTYYNPSLKSRVTISVDTSKNTFYLQMNSLRAEDTAVYYCARQALAMGGGSDKWGQGTLVTVSS VL: EYVLTQSPGTLSLSPGERATLSCSGQRLGDKYASWYQQKPGQSPRLVIYEDSKRPSGIPDRFSGSNSGDDATLTISRLEPEDFAVFYCQAWDRDTGVFGQGTKVEIKR , koff: 9.5e-05
